Data origin: patent US5382596A

- system: adrenergic α2 receptor (Rattus norvegicus, UniProt P22909)
- Sequence (P22909 1-465): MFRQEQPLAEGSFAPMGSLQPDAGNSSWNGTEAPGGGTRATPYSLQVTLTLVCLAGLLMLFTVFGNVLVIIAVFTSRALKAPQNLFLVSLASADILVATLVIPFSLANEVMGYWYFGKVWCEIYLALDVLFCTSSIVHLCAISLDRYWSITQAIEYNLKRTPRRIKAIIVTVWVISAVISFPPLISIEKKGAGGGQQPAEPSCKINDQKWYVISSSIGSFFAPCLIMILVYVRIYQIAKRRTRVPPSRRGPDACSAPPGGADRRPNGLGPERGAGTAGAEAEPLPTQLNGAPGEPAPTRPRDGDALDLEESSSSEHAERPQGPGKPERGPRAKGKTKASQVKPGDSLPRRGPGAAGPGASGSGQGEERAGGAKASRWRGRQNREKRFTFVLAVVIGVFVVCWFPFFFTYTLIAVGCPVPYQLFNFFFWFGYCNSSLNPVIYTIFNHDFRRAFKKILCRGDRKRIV
- assay-comment: Adrenergic α2 in vitro functional test (rat vas deferens, inhibition of twitch)
- Assay type: biochemical
- cond: concentration that produces 50% of the maximal inhibition of twitch; rat vas deferens; read-out: a2 A50
pEC50: −log10 of the molar value.
# pEC50 values compiled below

// pEC50 value for CCCN(CCOC1CCC1)[C@H]1CCc2c(O)cccc2C1 [Example 18] : < 5.00

// pEC50 value for CCN(CCC1CCCO1)[C@H]1CCc2c(O)cccc2C1 (stereo partly drawn) [Example 25] : < 5.00

// pEC50 value for CCCN(CCOC1CCCC1)[C@H]1CCc2c(O)cccc2C1 [Example 16] : < 5.00
